# Test system: MDR1-MDCK cell monolayers
# experimentDescription: MDCK-MDR1 permeability assay (BBB penetration potential)
# Format: in vitro ADME
# testSettings: dog, MDCK-MDR1, 120 min, 5 μM, pH 7.4
Binary call on MDCK-MDR1: % Recov A-B: MET from 70% upward, NOT MET beneath that.

| compound | answerLabel |
| --- | --- |
| Cn1cc(-c2cc(O)c(-c3ccc(O[C@@H]4CC5CC[C@H](N5)[C@@H]4F)nn3)cn2)cn1 (single isomer, unassigned) | MET |
| C[C@@]12CC[C@@](C)(N1)[C@@H](F)[C@@H](Oc1ccc(-c3ccc(-c4cn[nH]c4)cc3O)nn1)C2 (single isomer, unassigned) | MET |
| Oc1cc(-n2ncc3ccccc32)ccc1-c1ccc(O[C@H]2C[C@@H]3CC[C@@H](N3)[C@H]2F)nn1 (single isomer, unassigned) | NOT MET |
| Cn1cc(-c2cc(O)c(-c3ccc(O[C@H]4C[C@@H]5CCC[C@@H](N5)[C@H]4F)nn3)cc2F)cn1 (single isomer, unassigned) | NOT MET |
| Cc1ncc(-c2ccc(-c3ccc(O[C@@H]4C[C@H]5CCC[C@H](N5)[C@@H]4F)nn3)c(O)c2)o1 (single isomer, unassigned) | MET |

====

# System: MDR1
# experimentDescription: MDCK-MDR1 permeability assay (BBB penetration potential)
# Format: in vitro ADME
# testSettings: dog, MDCK-MDR1, pH 7.4, MDCK-MDR1: Papp B-A

| molecule | unitText | Papp B→A at 120 min, 5 μM |
| --- | --- | --- |
| Oc1cc2cnccc2cc1-c1ccc(O[C@@H]2C[C@H]3CCC[C@H](N3)[C@@H]2F)nn1 (single isomer, unassigned) [80-ENT1] | ×10⁻⁶ cm/s | 31.4 |
| Cn1cc(-c2cc(O)c(-c3ccc(O[C@H]4C[C@@H]5CCC[C@@H](N5)[C@H]4F)nn3)cc2F)cn1 (single isomer, unassigned) [82-ENT2] | ×10⁻⁶ cm/s | 12.8 |
| Oc1cc2ncccc2cc1-c1ccc(O[C@@H]2C[C@H]3CCC[C@H](N3)[C@@H]2F)nn1 (single isomer, unassigned) [103-ENT1] | ×10⁻⁶ cm/s | 61.5 |
| Cn1cc(-c2ccc(-c3ccc(O[C@@H]4C[C@@]5(C)CC[C@](C)(N5)[C@@H]4F)nn3)c(O)c2)cn1 (single isomer, unassigned) [150-ENT2] | ×10⁻⁶ cm/s | 38.6 |
| Cn1ccc(-c2ccc(-c3ccc(O[C@@H]4C[C@H]5CCC[C@H](N5)[C@@H]4F)nn3)c(O)c2)n1 (single isomer, unassigned) [68-ENT1] | ×10⁻⁶ cm/s | 51.9 |
| Cn1cc(-c2cc(O)c(-c3ccc(O[C@H]4C[C@@H]5CC[C@@H](N5)[C@H]4F)nn3)cc2F)cn1 (single isomer, unassigned) [61-ENT2] | ×10⁻⁶ cm/s | 12.2 |

====

Item-by-item account of Papp A→B at 120 min, 5 μM
# Test system: MDR1
# experimentDescription: MDCK-MDR1 permeability assay (BBB penetration potential)
# Assay type: in vitro ADME
# testSettings: dog, MDCK-MDR1, pH 7.4, MDCK-MDR1: Papp A-B

| compound | Papp A→B at 120 min, 5 μM / ×10⁻⁶ cm/s |
| --- | --- |
| Cc1ncn(-c2ccc(-c3ccc(O[C@H]4C[C@@H]5CCC[C@@H](N5)[C@H]4F)nn3)c(O)c2)n1 (single isomer, unassigned) [70-ENT2] | 7.47 |
| Cn1ccc(-c2ccc(-c3ccc(O[C@H]4C[C@@H]5CCC[C@@H](N5)[C@H]4F)nn3)c(O)c2)cc1=O (single isomer, unassigned) [54-ENT2] | 1.8 |
| Oc1cc(-c2ccc3cncn3c2)ccc1-c1ccc(O[C@H]2C[C@@H]3CCC[C@@H](N3)[C@H]2F)nn1 (single isomer, unassigned) [85-ENT2] | 2.26 |

====

# Test system: mHTT protein
# experimentDescription: mHTT protein assay (2B7-MW1, Mesoscale Discovery)
# Assay type: cell-based, human
# testSettings: GM04724 (CAG 70/20) Huntington's disease patient lymphoblast cells, 48 hours, 2B7-MW1 MSD; read-out: HTT Potency - Protein EC50 mHTT (average)
pEC50: −log10 of the molar value.
valueKind: pEC50

| compound | valueKind | testValue |
| --- | --- | --- |
| Oc1cc(-c2cnn3ccccc23)ccc1-c1ccc(O[C@H]2C[C@@H]3CCC[C@@H](N3)[C@H]2F)nn1 (single isomer, unassigned) [91-ENT2] | pEC50 | 5.00 to 6.30 |
| Cc1nc(-c2ccc(-c3ccc(O[C@H]4C[C@@H]5CCC[C@@H](N5)[C@H]4F)nn3)c(O)c2)cs1 (single isomer, unassigned) [71-ENT1] | pEC50 | 7.30 to 7.80 |
| Oc1cc2cnccc2cc1-c1ccc(O[C@@H]2C[C@H]3CCC[C@H](N3)[C@@H]2F)nn1 (single isomer, unassigned) [80-ENT1] | pEC50 | 6.30 to 7.00 |
| Oc1cc2nccnc2cc1-c1ccc(O[C@@H]2C[C@H]3CCC[C@H](N3)[C@@H]2F)nn1 (single isomer, unassigned) [104-ENT1] | pEC50 | 5.00 to 6.30 |
| Cn1ccc(-c2ccc(-c3ccc(O[C@H]4C[C@@H]5CCC[C@@H](N5)[C@H]4F)nn3)c(O)c2)cc1=O (single isomer, unassigned) [54-ENT2] | pEC50 | 7.30 to 7.80 |
| Oc1cc(-c2ccc3cncn3c2)ccc1-c1ccc(O[C@H]2C[C@@H]3CCC[C@@H](N3)[C@H]2F)nn1 (single isomer, unassigned) [85-ENT2] | pEC50 | 6.30 to 7.00 |

====

# Tested on: MDR1
# experimentDescription: MDCK-MDR1 permeability assay (BBB penetration potential)
# Format: in vitro ADME
# testSettings: dog, MDCK-MDR1, pH 7.4, MDCK-MDR1: Efflux

| compound | efflux ratio at 120 min, 5 μM |
| --- | --- |
| Oc1cc(-c2nnco2)c(F)cc1-c1ccc(O[C@H]2C[C@@H]3CCC[C@@H](N3)[C@H]2F)nn1 (single isomer, unassigned) [143-ENT1] | 8 |
| Cn1ccc(-c2ccc(-c3ccc(O[C@H]4C[C@@H]5CCC[C@@H](N5)[C@H]4F)nn3)c(O)c2)n1 (single isomer, unassigned) [68-ENT2] | 4 |
| Cn1cc(-c2cc(O)c(-c3ccc(O[C@H]4C[C@@H]5CCC[C@@H](N5)[C@H]4F)nn3)c(F)c2)cn1 (single isomer, unassigned) [118-ENT2] | 8 |

====

# System: mHTT protein
# experimentDescription: mHTT protein assay (2B7-MW1, Mesoscale Discovery)
# Assay type: cell-based, human
# testSettings: GM04724 (CAG 70/20) Huntington's disease patient lymphoblast cells, 48 hours, 2B7-MW1 MSD; read-out: HTT Potency - Protein EC50 mHTT (average)
# Description: Compounds are tested on GM04724 (CAG 70/20) Huntington's disease patient lymphoblast cells at doses ranging from 10 μM to 0.6 nM. 4,500 cells/well are seeded in 384 well plates. […] Compounds are incubated for 48 hours, mHTT protein levels are assessed by the 2B7-MW1 assay via Mesoscale Discovery (MSD) as previously reported (Macdonald et al., 2014). […] The viability readout is carried out by CTG according to the manufacturer's instructions.

| compound | EC50 |
| --- | --- |
| Cc1ncn(-c2ccc(-c3ccc(O[C@@H]4C[C@H]5CCC[C@H](N5)[C@@H]4F)nn3)c(O)c2)n1 (single isomer, unassigned) | 101 to 500 nM |
| Oc1cc(-c2cn[nH]c2)ccc1-c1ccc(O[C@H]2C[C@@H]3CCC[C@@H](N3)[C@H]2F)nn1 (single isomer, unassigned) | 0.01 to 15 nM |
| Cn1cc(-c2ccc(-c3ccc(O[C@H]4C[C@@H]5COC[C@@H](N5)[C@H]4F)nn3)c(O)c2)cn1 (single isomer, unassigned) | 501 to 10000 nM |

====

# System: Huntingtin (HTT) transcripts
# experimentDescription: Quantitative splicing assay (HTT), qPCR
# Type: cell-based
# testSettings: Homo sapiens; GM04724 (CAG 70/20) Huntington's disease patient lymphoblasts, 24 h, qPCR HTTex49_50; read-out: HTT Potency - Splicing: E49-50 EC50 (average)
pEC50: −log10 of the molar value.
Item-by-item account of pEC50
valueKind: pEC50

| compound | studyTarget | valueKind | testValue |
| --- | --- | --- | --- |
| Oc1cc(-c2cn[nH]c2)ccc1-c1ccc(O[C@@H]2C[C@H]3CC(F)(F)[C@@H](C2)N3)nn1 (single isomer, unassigned) [46-ENT2] | Huntingtin (HTT) transcripts | pEC50 | 6.30 to 7.00 |
| Cc1ncc(-c2ccc(-c3ccc(O[C@@H]4C[C@H]5CCC[C@H](N5)[C@@H]4F)nn3)c(O)c2)s1 (single isomer, unassigned) [96-ENT1] | Huntingtin (HTT) transcripts | pEC50 | 7.30 to 7.80 |
| Oc1cc(-n2ccc(F)n2)ccc1-c1ccc(O[C@H]2C[C@@H]3CCC[C@@H](N3)[C@H]2F)nn1 (single isomer, unassigned) [115-ENT2] | Huntingtin (HTT) transcripts | pEC50 | 7.30 to 7.80 |
| Oc1cc(-c2ccn3ccnc3c2)ccc1-c1ccc(O[C@H]2C[C@@H]3CCC[C@@H](N3)[C@H]2F)nn1 (single isomer, unassigned) [83-ENT2] | Huntingtin (HTT) transcripts | pEC50 | 5.00 to 6.30 |
| Cn1ccc2cc(O)c(-c3ccc(O[C@H]4C[C@]5(C)CC[C@@](C)(N5)[C@H]4F)nn3)cc2c1=O (single isomer, unassigned) [130-ENT1] | Huntingtin (HTT) transcripts | pEC50 | 7.00 to 7.29 |
| Cn1cc(-c2cc(O)c(-c3ccc(O[C@H]4C[C@@H]5CCC[C@@H](N5)[C@H]4F)nn3)cn2)cn1 (single isomer, unassigned) [64-ENT2] | Huntingtin (HTT) transcripts | pEC50 | 5.00 to 6.30 |

Numbers sourced from patent US12522597B2.
